# System: MALME-3M
# test-description: cells
# Type: cell-based
# condition-label: MALME-3M (Melanoma), 10 μM, 48 hours
measurement-kind: growth percentage (%)
Express it in %; write the number only.

Examples with their reported growth percentage follow.
[[record]]
smiles_data = "CN1CCN(c2nc3ccccc3c3c2-c2ccc(Cl)cc2C3=O)CC1"
recorded_measurement = 106.59

[[record]]
smiles_data = "CNc1nc2ccccc2c2c1-c1ccc(Cl)cc1C2=O"
recorded_measurement = 114.83

[[record]]
smiles_data = "CC1CCN(c2nc3ccccc3c3c2-c2ccc(Cl)cc2C3=O)CC1"
recorded_measurement = 98.31

[[record]]
smiles_data = "O=C1c2cc(Cl)ccc2-c2c(SCCO)nc3ccccc3c21"
recorded_measurement = 107.23

[[record]]
smiles_data = "COc1nc2ccccc2c2c1-c1ccc(Cl)cc1C2=O"
recorded_measurement = 107.54

[[record]]
smiles_data = "O=C1c2cc(Cl)ccc2-c2c(N3CCOCC3)nc3ccccc3c21"
recorded_measurement = 136.93

[[record]]
smiles_data = "O=C1c2cc(Cl)ccc2-c2c(Cl)nc3ccccc3c21"
recorded_measurement = 102.06

[[record]]
smiles_data = "O=C1c2cc(Cl)ccc2-c2c(N3CCN(C(=O)N4CCCCC4)CC3)nc3ccccc3c21"
recorded_measurement = 102.62

[[record]]
smiles_data = "O=C1c2cc(Cl)ccc2-c2c(N3CCN(C4CCCC4)CC3)nc3ccccc3c21"
recorded_measurement = 92.48


Consider the record given below.
Param item = O=C1c2cc(Cl)ccc2-c2c(N3CCNCC3)nc3ccccc3c21 ; retrieve measured growth percentage.
-32.28
